Target: JAK1 enzyme (Homo sapiens (Human))
Test: JAK1 isolated enzyme high ATP Caliper endpoint assay
Conditions: 2.5 mM ATP, read-out: JAK-1 IC50
Reported pIC50 is given for each of the following compounds.
The meaning of pIC50 here: minus log10 of the concentration in molar units.

Use these answered entries as a reference point.
- molecule_smiles: "O=C(c1ccc(F)cc1)N1CCc2[nH]c(-c3n[nH]c4cc(-c5cc(F)c(O)cc5CC(F)(F)F)ccc34)nc2C1"
  readout_value: 8.11
- molecule_smiles: "CCc1cc(O)c(F)cc1-c1ccc2c(-c3nc4c([nH]3)CCN(C(=O)c3cc(C#N)ccn3)CC4)n[nH]c2c1"
  readout_value: 7.72
- molecule_smiles: "CCc1cc(O)c(F)cc1-c1ccc2c(-c3nc4c([nH]3)CCN(Cc3ccc(O)cc3)C4)n[nH]c2c1"
  readout_value: 8.37

Which pIC50 is reported with JAK1 enzyme (Homo sapiens (Human)) for this entry: `CCc1cc(O)c(F)cc1-c1ccc2c(-c3nc4c([nH]3)CCN(Cc3cnc5ccccc5c3)C4)n[nH]c2c1` ?
8.77

---

Biological target: JAK2 (Homo sapiens (Human), UniProt O60674)
Sequence (O60674 whole entry): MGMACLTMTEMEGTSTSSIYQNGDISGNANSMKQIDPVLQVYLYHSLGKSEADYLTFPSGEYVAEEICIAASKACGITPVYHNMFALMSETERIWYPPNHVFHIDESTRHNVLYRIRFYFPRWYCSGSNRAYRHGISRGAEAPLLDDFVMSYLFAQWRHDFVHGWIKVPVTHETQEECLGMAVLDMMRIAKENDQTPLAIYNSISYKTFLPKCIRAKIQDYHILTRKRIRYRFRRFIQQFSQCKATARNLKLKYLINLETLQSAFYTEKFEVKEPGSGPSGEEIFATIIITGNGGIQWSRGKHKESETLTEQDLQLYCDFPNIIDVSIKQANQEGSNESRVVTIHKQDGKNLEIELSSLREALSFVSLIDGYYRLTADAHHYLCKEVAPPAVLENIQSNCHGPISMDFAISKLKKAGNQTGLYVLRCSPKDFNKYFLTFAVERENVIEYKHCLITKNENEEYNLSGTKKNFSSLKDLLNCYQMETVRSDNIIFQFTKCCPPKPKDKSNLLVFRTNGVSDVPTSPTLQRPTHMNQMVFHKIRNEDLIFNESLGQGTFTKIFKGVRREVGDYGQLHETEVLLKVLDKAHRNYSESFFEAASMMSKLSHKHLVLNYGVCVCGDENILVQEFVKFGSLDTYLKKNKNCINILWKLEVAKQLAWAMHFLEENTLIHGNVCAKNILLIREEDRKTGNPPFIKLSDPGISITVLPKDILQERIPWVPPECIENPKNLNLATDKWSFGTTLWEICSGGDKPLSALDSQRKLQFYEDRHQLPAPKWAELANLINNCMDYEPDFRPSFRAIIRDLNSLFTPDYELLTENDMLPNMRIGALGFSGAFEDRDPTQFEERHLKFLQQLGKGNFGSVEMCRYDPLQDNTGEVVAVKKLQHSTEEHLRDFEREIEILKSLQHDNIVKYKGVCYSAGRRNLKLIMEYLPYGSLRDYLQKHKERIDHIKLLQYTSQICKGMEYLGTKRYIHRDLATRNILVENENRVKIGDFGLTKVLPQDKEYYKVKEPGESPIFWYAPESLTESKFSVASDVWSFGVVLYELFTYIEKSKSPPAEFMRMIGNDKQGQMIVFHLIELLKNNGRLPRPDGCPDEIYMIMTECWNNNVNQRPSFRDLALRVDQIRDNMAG
Assay: JAK2 PathHunter assay (prolactin response, U2OS cell line)
Conditions: PathHunter U2OS cell line expressing JAK2, prolactin challenge; read-out: JAK-2 IC50
Description: JAK1 and JAK2 PathHunter Assay 4 mM stock solutions of test compounds are prepared and serially diluted in 100% DMSO. A standard curve using PF-00956980 at a top concentration of 10 mM is also prepared. […] Prolactin (Peprotech) is used for the agonist challenge. […] Antagonism of the JAK1 or JAK2 prolactin response is measured in the presence of prolactin at an approximate […], concentration for JAK1 and approximately EC100 for JAK2. […]
test_readout: pIC50
Keep in mind that pIC50 stands for -log10 of concentration in molar terms.

Field request: pIC50 | item: CCc1cc(O)c(F)cc1-c1ccc2c(-c3nc4c([nH]3)CCN(C(=O)c3cnc(N5CCCCC5)cn3)C4)n[nH]c2c1 [Example 4]
6.75

---

Molecular target: JAK1 enzyme (Homo sapiens (Human), UniProt P23458)
Sequence (P23458 whole entry): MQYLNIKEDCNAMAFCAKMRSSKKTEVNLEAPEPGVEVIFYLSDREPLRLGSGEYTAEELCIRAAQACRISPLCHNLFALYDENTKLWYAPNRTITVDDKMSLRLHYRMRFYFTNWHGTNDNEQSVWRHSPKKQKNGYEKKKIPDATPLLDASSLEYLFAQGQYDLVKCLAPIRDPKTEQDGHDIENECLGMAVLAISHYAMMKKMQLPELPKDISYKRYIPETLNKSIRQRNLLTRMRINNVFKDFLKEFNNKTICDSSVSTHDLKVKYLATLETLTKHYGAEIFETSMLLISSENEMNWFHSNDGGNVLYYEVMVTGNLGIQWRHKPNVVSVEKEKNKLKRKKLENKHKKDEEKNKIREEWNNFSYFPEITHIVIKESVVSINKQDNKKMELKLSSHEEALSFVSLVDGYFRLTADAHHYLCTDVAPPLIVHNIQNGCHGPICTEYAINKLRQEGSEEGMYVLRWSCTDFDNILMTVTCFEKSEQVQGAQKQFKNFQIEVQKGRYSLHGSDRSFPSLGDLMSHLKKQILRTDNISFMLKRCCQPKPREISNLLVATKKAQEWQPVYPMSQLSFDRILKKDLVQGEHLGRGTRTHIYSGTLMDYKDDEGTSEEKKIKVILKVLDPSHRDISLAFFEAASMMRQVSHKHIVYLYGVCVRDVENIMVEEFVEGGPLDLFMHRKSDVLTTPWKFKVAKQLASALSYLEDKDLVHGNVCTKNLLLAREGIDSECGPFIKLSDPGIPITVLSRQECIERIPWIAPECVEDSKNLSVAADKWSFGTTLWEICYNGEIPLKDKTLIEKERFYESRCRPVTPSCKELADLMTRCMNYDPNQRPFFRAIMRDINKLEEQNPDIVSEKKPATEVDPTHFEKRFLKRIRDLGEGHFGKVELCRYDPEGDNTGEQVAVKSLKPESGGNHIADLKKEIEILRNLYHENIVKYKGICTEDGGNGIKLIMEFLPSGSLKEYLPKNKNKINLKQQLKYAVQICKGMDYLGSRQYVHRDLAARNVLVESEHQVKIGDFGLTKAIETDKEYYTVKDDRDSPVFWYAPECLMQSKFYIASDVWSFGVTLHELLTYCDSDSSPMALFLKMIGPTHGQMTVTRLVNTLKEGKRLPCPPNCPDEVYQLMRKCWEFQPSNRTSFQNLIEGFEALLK
Test: JAK1 isolated enzyme high ATP Caliper endpoint assay;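 note: enzyme at 10 nM preincubated with inhibitor 30 min, then kinase reaction 120 min at room temperature, peptide phosphorylation read by microfluidic mobility shift with fluorescence, inhibition relative to HPE and ZPE plate controls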
Conditions: 2.5 mM ATP, read-out: JAK-1 IC50
# pIC50 values compiled below
pIC50 here: minus log base 10 of the concentration, concentration in moles per litre.

- molecule_smiles: "CCc1cc(O)c(F)cc1-c1ccc2c(-c3nc4c([nH]3)CCN(Cc3cccnc3C#N)C4)n[nH]c2c1"
  pIC50: 8.40

What value of pIC50 has been recorded for this entry: `CCc1cc(O)c(F)cc1-c1ccc2c(-c3nc4c([nH]3)CCN(Cc3ccc5cccnc5n3)C4)n[nH]c2c1`
7.86

Same question, `CCc1cc(O)c(F)cc1-c1ccc2c(-c3nc4c([nH]3)CCN(S(=O)(=O)c3ccc(F)cc3)C4)n[nH]c2c1` this time
8.92

---

Target: JAK1 enzyme (Homo sapiens (Human))
Assay: JAK1 isolated enzyme high ATP Caliper endpoint assay
Conditions: 2.5 mM ATP, read-out: JAK-1 IC50
test_readout: IC50 (nM)
Express it in nM; write the number only.

- molecule_smiles: "O=C(c1cnc(N2CCCCC2)cn1)N1CCc2[nH]c(-c3n[nH]c4cc(-c5cc(F)c(O)cc5CC(F)(F)F)ccc34)nc2C1"
  test_readout: "IC50"
  readout_value: 1.1
- molecule_smiles: "CCc1cc(O)c(F)cc1-c1ccc2c(-c3nc4c([nH]3)CCN(Cc3ccccc3)CC4)n[nH]c2c1"
  test_readout: "IC50"
  readout_value: 0.8

Let us examine a further case.
Item under review: `CCc1cc(O)c(F)cc1-c1ccc2c(-c3nc4c([nH]3)CCN(C(=O)c3ccsn3)C4)n[nH]c2c1` . Reported IC50?
46

The origin of these recorded values is patent US8895544B2.
